Hi there, I'd appreciate the recorded pKd for every entry that follows.
SYSTEM_UNDER_TEST: Odorant binding protein 18 (OBP18) (Apis mellifera, UniProt A0ACM8Q9Q2)
Construct: recombinant mature protein
Sequence (A0ACM8Q9Q2 17-135): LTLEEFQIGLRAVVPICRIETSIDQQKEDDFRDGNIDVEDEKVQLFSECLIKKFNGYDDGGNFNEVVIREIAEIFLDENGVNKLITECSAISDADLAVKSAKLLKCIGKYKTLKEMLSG
EXPERIMENT_DESCRIPTION: biochemical
Design: competitive fluorescence displacement of 2 uM 1-NPN from purified recombinant OBP (2 uM), Tris pH 7.4
EXPERIMENTAL_SETUP: KD calculated from IC50 of 1-NPN displacement
The read-out pKd is expressed as -log10 of concentration in moles per litre.

input: Write down pKd measured for item O=C/C=C/c1ccccc1
output: 5.82

input: Let me know recorded pKd for CC(=O)CCCCCCCC(=O)O , thanks.
output: 6.15

input: Indicate the recorded pKd value for this compound: CCCCCCCCCCCCCCCC(=O)OC [Methyl palmitate]
output: 7.00

input: Report pKd, nothing else, for this compound: CC(C)=CCC/C(C)=C/CO
output: 7.00

input: Identify the reported pKd for the following entry. CCCCCC(C)=O
output: 5.96

input: Please supply the value of reported pKd for the item CC(C)=CCCC(C)CC=O (stereo not shown)
output: 5.96

input: # return recorded pKd for input CC(C)CC(=O)O
output: 5.96
